# Tgt: KRas G12S (Homo sapiens, UniProt P01116, G12S)
# Sequence (P01116 1-169 isoform P01116-2 G12S): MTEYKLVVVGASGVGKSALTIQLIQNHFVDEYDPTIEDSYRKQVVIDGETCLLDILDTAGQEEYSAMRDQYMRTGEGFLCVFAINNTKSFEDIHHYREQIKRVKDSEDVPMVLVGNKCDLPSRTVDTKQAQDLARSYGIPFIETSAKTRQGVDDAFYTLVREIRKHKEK
# Assay type: binding
# Test context: TR-FRET displacement, read-out: Binding to KRas (IC50 nM) G12S
Attribute measured: IC50 (nM)

Solved cases (2 shown):
> print(dat)
                                   compound  unit.annotation  endpoint.result
1  CCc1cccc2cccc(N3CCc4c(nc(OCC5(CN(C)C)CC5)nc4NCc4c(C)nnn4CC)C3)c12               nM              161
2  Oc1cc(Cl)c(C2CC2)c(N2CCc3c(nc(OCC45CCCN4CCC5)nc3N3CCC[C@]4(C3)C[C@@H](O)C4)C2)c1               nM               15

(I) Cc1cc2[nH]ncc2c(N2CCc3c(nc(OCC45CCCN4CCC5)nc3N3CCCC4(CC(=O)N4)C3)C2)c1C (stereo not drawn)
(II) Cc1cc2[nH]ncc2c(N2CCc3c(nc(OCC45CCCN4CCC5)nc3N3CCCC4(CC(O)C4)C3)C2)c1C (single isomer, unassigned; isomer 1)
(III) Cc1cc2[nH]ncc2c(N2CCc3c(nc(OCC4(CN(C)C)CC4)nc3N3CCC[C@]4(C3)NC(=O)NC4=O)C2)c1C
Query string: Ordering: ascending IC50. Lab note: final answer is the ordered label list.
Result string: III, I, II
(III: 9 nM, I: 33 nM, II: 616 nM)

###

# Tgt: KRas Q61H (Homo sapiens, UniProt P01116, Q61H)
# Sequence (P01116 1-169 isoform P01116-2 Q61H): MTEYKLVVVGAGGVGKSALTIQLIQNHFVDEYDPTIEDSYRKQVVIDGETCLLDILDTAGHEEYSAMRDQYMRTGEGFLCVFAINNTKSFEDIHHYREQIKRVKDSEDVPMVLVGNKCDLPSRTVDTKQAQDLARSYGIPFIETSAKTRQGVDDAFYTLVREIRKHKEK
# Method: KRas binding assay (TR-FRET displacement), KRas Q61H
# Test context: TR-FRET displacement
Attribute measured: IC50 (nM)

Solved cases (10 shown):
> print(dat)
                                    compound                                       tgt  endpoint.result
 1  CN(C)C(=O)c1cc2n(n1)CCCN(c1nc(OCC34CCCN3CCC4)nc3c1CCN(c1cc(O)cc(Cl)c1C1CC1)C3)C2 [Example 437]  KRas Q61H (Homo sapiens, UniProt P01116, Q61H)               12
 2  Cc1cc2[nH]ncc2c(N2CCc3c(nc(OCC45CCCN4CCC5)nc3N3CCC[C@]4(C3)NC(=O)NC4=O)C2)c1C [Example 455]  KRas Q61H (Homo sapiens, UniProt P01116, Q61H)                3
 3  CCc1cccc2cccc(N3CCc4c(nc(OCC5(CN(C)C)CC5)nc4NCC4COCC4n4cc(C(N)=O)nn4)C3)c12 (stereo not drawn) [Example 705]  KRas Q61H (Homo sapiens, UniProt P01116, Q61H)            15900
 4  CCc1cccc2cccc(N3CCc4c(nc(OCC5(CN(C)C)CC5)nc4NC4CN(c5nccn6nc(C)cc56)C4)C3)c12 [Example 699]  KRas Q61H (Homo sapiens, UniProt P01116, Q61H)             8740
 5  CN(C)C(=O)c1cc2n(n1)CCCN(c1nc(OC[C@@]34CCCN3C[C@H](F)C4)nc3c1CCN(c1cccc4cccc(Cl)c14)C3)C2 [Example 483]  KRas Q61H (Homo sapiens, UniProt P01116, Q61H)              238
 6  Cc1cc2[nH]ncc2c(N2CCc3c(nc(OCC45CCCN4CCC5)nc3N3CC4CC(O)C(C4)C3)C2)c1C (stereo not drawn) [Example 457]  KRas Q61H (Homo sapiens, UniProt P01116, Q61H)             2190
 7  CCc1cccc2cccc(N3CCc4c(nc(OCC5(CN(C)C)CC5)nc4NC4CN(C(=O)NC)C4)C3)c12 [Example 676]  KRas Q61H (Homo sapiens, UniProt P01116, Q61H)             6700
 8  CCc1cccc2cccc(N3CCc4c(nc(OCC5(CN(C)C)CC5)nc4N4CCCN(CC(F)(F)F)CC4)C3)c12 [Example 684]  KRas Q61H (Homo sapiens, UniProt P01116, Q61H)             2210
 9  Oc1cc(Cl)c(C2CC2)c(N2CCc3c(nc(OCC45CCCN4CCC5)nc3N3CCC[C@]4(C3)C[C@H](O)C4)C2)c1 [Example 440]  KRas Q61H (Homo sapiens, UniProt P01116, Q61H)               63
10  Cc1cc2[nH]ncc2c(N2CCc3c(nc(OCC45CCCN4CCC5)nc3N3CCCC4(CNC(=O)N4)C3)C2)c1C (stereo not drawn) [Example 461]  KRas Q61H (Homo sapiens, UniProt P01116, Q61H)               26

(1) CCc1cccc2cccc(N3CCc4c(nc(OCC5(CN(C)C)CC5)nc4NCc4cc(CO)[nH]n4)C3)c12 [Example 539]
(2) CCc1cccc2cccc(N3CCc4c(nc(OCC5(CN(C)C)CC5)nc4N4CC(C)CC(CO)C4)C3)c12 (stereo not drawn) [Example 516]
(3) CC1(O)COCCN(c2nc(OCC34CCCN3CCC4)nc3c2CCN(c2cc(O)cc(Cl)c2C2CC2)C3)C1 (stereo not drawn) [Example 436]
(4) Cc1cc2[nH]ncc2c(N2CCc3c(nc(OC[C@@]45CCCN4C[C@H](F)C5)nc3N3CCC[C@]4(C3)NC(=O)NC4=O)C2)c1C [Example 450]
(5) Cc1cc2[nH]ncc2c(N2CCc3c(nc(OCC45CCCN4CCC5)nc3N3CCOCC(C)(O)C3)C2)c1C (stereo not drawn) [Example 460]
Query string: Ordering: ascending IC50. Lab note: final answer is the ordered label list.
Result string: 4, 3, 5, 2, 1

The origin of these recorded values is patent US20250368649A1.
